# ASSAY_NAME: physchem
Ends that are not written are not given here.
MEASUREMENT_NAME: solubility

Hello, please tell me recorded solubility for this one: CEEQAQQIRLQAEAFQARLKSWFEPLVEDM [hEP-3]
< 220 µg/mL

Hello, please tell me recorded solubility for this one: EELRVRLASHLRKLRKRLLRDADDLQKRLAVY [hEP-2/ΔCys]
> 220 µg/mL

Hello, please tell me recorded solubility for this one: CEELRVRLASHLRKLRKRLLRDADDLQKRLAVY [hEP-2]
> 220 µg/mL

Hello, please tell me recorded solubility for this one: CVRLASHLRKLRKRLLRDADDL [hEP-4]
< 220 µg/mL

Hello, please tell me recorded solubility for this one: CEEIRARLSTHLRKMRKRLMRDADDLQKRLAVY [mEP-2]
> 220 µg/mL

Hello, please tell me recorded solubility for this one: CVRLASHLRKLRKRLLRDADDLQKRLAVY [hEP-10]
> 220 µg/mL

Hello, please tell me recorded solubility for this one: CVDRYEARLRARALKDRQKRLLKELSLLVRHLD [Scrambled, reference compound]
> 220 µg/mL
